The measured values listed here are drawn from patent US9969742B2.

# target-system: PDE1B (Homo sapiens)
# Construct: purchased Reaction Biology Corporation, Malvern, Pa
# assay: Phosphodiesterase enzyme screening assay, PDE1B
# Assay type: biochemical
# experimental-context: ratio of IC50 values, PDE1B versus PDE9A2; value greater than 1 = greater selectivity for PDE9A2
Provide the reported PDE1B selectivity (versus PDE9A2) of each item.
One number for each entry.

Here are 3 compounds together with their reported answers.
CC1CN(Cc2ncccc2C(F)(F)F)CC1c1nn2c(C3CCOCC3)ncc2c(=O)[nH]1 (single isomer, unassigned; (+)) :: 58
CC1CN(Cc2ccoc2)CC1c1nn2c(C3CCOCC3)ncc2c(=O)[nH]1 (single isomer, unassigned; (+)) :: 123
CC1CN(Cc2cccc3cccnc23)CC1c1nn2c(C3CCOCC3)ncc2c(=O)[nH]1 (single isomer, unassigned; (+)) :: 673

Could you now look at the following compound, please?
Reported PDE1B selectivity (versus PDE9A2), compound COc1cc(CN2CC(C)C(c3nn4c(C5CCOCC5)ncc4c(=O)[nH]3)C2)ccn1 (single isomer, unassigned; (+)) : ____
607

* * *

# target-system: PDE1B (Homo sapiens)
# Construct: purchased Reaction Biology Corporation, Malvern, Pa
# assay: Phosphodiesterase enzyme screening assay, PDE1B
# Format: biochemical
# experimental-context: ratio of IC50 values PDE1B vs PDE9A2; value greater than 1 indicates greater selectivity for PDE9A2
value-type: PDE1B selectivity (versus PDE9A2)
Answers are plain numbers.

Here are 2 compounds together with their reported answers.
Cc1ccc(F)cc1-c1ncc2c(=O)[nH]c(C3CN(Cc4ccc(Cl)cc4)CC3C)nn12 (single isomer, unassigned; (-)) :: 1735
Cc1ccc(F)cc1-c1ncc2c(=O)[nH]c(C3CN(Cc4nc5ccccc5[nH]4)CC3C)nn12 (single isomer, unassigned; (+)) :: 130

Reported PDE1B selectivity (versus PDE9A2), compound Cc1cc(F)ccc1-c1ncc2c(=O)[nH]c(C3CN(Cc4cn5ccccc5n4)CC3C)nn12 (single isomer, unassigned; (+)) : ____
792

* * *

# target-system: PDE1A (Homo sapiens, UniProt P54750)
# Construct: purchased Reaction Biology Corporation, Malvern, Pa
# Sequence (P54750 whole entry): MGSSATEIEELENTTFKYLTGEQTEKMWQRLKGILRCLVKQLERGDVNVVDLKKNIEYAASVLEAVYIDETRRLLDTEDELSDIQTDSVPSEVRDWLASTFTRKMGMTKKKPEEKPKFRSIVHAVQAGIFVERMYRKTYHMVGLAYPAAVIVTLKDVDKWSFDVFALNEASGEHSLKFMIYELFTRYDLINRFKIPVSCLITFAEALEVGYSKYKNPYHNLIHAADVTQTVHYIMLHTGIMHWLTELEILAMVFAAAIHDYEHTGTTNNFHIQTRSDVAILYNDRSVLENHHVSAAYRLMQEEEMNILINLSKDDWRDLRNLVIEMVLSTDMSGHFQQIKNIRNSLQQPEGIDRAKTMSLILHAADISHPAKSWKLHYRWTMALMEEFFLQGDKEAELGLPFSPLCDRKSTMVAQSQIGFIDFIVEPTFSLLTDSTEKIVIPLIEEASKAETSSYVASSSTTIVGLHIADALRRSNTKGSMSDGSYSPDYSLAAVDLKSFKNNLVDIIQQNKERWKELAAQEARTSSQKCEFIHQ
# assay: Phosphodiesterase enzyme screening assay, PDE1A
# Format: biochemical
# experimental-context: ratio of IC50 values PDE1A vs PDE9A2; value greater than 1 indicates greater selectivity for PDE9A2
# Description: Compounds of the invention were screened against PDE1A, PDE1B, PDE2A, PDE3A, PDE3B, PDE4A1A, PDE4B1, PDE4D3, PDE5A1, PDE6C, PDE7A, PDE8A1, PDE9A2, PDE10A2 AND PDE11A isoforms of the phosphodiesterase enzyme to determine activity and overall selectivity through comparative analysis. […] Where 8-methoxy-IBMX and Zaprinast were used as reference inhibitors. […]
value-type: PDE1A selectivity (versus PDE9A2)
Answers are plain numbers.

Here are 5 compounds together with their reported answers.
Cc1ccc(F)cc1-c1ncc2c(=O)[nH]c(C3CN(Cc4nc5ccccc5[nH]4)CC3C)nn12 (single isomer, unassigned; (+)) :: 89
Cc1ccc(F)cc1-c1ncc2c(=O)[nH]c(C3CN(Cc4nc5ccccn5n4)CC3C)nn12 (single isomer, unassigned; (+)) :: 487
Cc1cc(F)ccc1-c1ncc2c(=O)[nH]c(C3CN(Cc4nc5ccccc5[nH]4)CC3C)nn12 (single isomer, unassigned; (+)) :: 1438
Cc1cc(F)ccc1-c1ncc2c(=O)[nH]c(C3CN(Cc4ccccn4)CC3C)nn12 (single isomer, unassigned; (+)) :: 5780
Cc1cc(F)ccc1-c1ncc2c(=O)[nH]c(C3CN(Cc4cn5ccccc5n4)CC3C)nn12 (single isomer, unassigned; (+)) :: 339

Parameters: items (list). Returns: PDE1A selectivity (versus PDE9A2) for each item.
1. Cc1ccc(F)cc1-c1ncc2c(=O)[nH]c(C3CN(Cc4ccc(F)cc4)CC3C)nn12 (single isomer, unassigned; (+))
2. Cc1ccc(F)cc1-c1ncc2c(=O)[nH]c(C3CN(Cc4cnccn4)CC3C)nn12 (single isomer, unassigned; (+))

1. 1738
2. 85

* * *

Provide the reported IC50 of each item.
# target-system: PDE9A2 (Homo sapiens)
# Construct: purchased Reaction Biology Corporation, Malvern, Pa
# Sequence (O76083 1-533 isoform O76083-2): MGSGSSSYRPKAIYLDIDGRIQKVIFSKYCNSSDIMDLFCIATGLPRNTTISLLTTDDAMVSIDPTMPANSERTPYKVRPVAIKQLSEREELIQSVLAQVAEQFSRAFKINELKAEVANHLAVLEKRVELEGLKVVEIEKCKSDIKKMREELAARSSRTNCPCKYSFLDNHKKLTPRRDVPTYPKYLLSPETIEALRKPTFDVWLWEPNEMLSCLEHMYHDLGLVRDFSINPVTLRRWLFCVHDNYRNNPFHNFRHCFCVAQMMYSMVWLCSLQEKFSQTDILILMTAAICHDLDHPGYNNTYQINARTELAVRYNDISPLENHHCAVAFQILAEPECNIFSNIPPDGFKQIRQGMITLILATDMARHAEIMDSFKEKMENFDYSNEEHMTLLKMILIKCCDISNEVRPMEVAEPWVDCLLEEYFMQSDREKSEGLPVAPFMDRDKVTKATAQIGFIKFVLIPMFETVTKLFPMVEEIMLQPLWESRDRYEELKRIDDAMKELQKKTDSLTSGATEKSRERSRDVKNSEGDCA
# assay: Phosphodiesterase enzyme screening assay, PDE9A2
# Type: biochemical
# experimental-context: Table 1; 10 concentrations; 4.0 μM cGMP substrate; 1 hour at R.T.; read-out: Band (PDE9A2 IC50)

Here are 3 compounds together with their reported answers.
CC1CN(Cc2cccc(C3CC3)c2)CC1c1nn2c(C3CCOCC3)ncc2c(=O)[nH]1 (single isomer, unassigned; (+)) :: < 1 µM
CC1CN(C(C)c2ccccc2)CC1c1nn2c(C3CCOCC3)ncc2c(=O)[nH]1 (single isomer, unassigned; (+)) :: 1 to 10 µM
CC1CN(Cc2ccccc2)CC1c1nn2c(C3CCC(F)(F)CC3)ncc2c(=O)[nH]1 (single isomer, unassigned; (+)) :: < 1 µM

Parameters: items (list). Returns: IC50 for each item.
1. CC1CN(Cc2ccccc2)CC1c1nn2c(C3CCN(C)CC3)ncc2c(=O)[nH]1 (single isomer, unassigned)
2. CC1CN(Cc2ccccc2C#N)CC1c1nn2c(C3CCOCC3)ncc2c(=O)[nH]1 (single isomer, unassigned; (-))

1: 1 to 10 µM; 2: < 1 µM

Parameters: items (list). Returns: IC50 for each item.
1. CC1CN(C(=O)c2ccc(C#N)cc2)CC1c1nn2c(C3CCOCC3)ncc2c(=O)[nH]1 (single isomer, unassigned; (-))
2. Cc1ccc(F)cc1-c1ncc2c(=O)[nH]c(C3CN(Cc4ccccc4)CC3C)nn12 (single isomer, unassigned; (-))
3. CC1CN(S(=O)(=O)c2ccc(F)cc2)CC1c1nn2c(C3CCOCC3)ncc2c(=O)[nH]1 (single isomer, unassigned; (+))
4. CC1CN(Cc2ccc(F)cc2)CC1c1nn2c(C3CCOCC3)ncc2c(=O)[nH]1 (single isomer, unassigned; (-))
5. C[C@@H]1CN(Cc2cn3ncccc3n2)C[C@H]1c1nn2c(C3CCOCC3)ncc2c(=O)[nH]1 (relative stereo)

1: < 1 µM; 2: 1 to 10 µM; 3: < 1 µM; 4: < 1 µM; 5: < 1 µM

* * *

# target-system: PDE1B (Homo sapiens, UniProt Q01064)
# Construct: purchased Reaction Biology Corporation, Malvern, Pa
# Sequence (Q01064 whole entry): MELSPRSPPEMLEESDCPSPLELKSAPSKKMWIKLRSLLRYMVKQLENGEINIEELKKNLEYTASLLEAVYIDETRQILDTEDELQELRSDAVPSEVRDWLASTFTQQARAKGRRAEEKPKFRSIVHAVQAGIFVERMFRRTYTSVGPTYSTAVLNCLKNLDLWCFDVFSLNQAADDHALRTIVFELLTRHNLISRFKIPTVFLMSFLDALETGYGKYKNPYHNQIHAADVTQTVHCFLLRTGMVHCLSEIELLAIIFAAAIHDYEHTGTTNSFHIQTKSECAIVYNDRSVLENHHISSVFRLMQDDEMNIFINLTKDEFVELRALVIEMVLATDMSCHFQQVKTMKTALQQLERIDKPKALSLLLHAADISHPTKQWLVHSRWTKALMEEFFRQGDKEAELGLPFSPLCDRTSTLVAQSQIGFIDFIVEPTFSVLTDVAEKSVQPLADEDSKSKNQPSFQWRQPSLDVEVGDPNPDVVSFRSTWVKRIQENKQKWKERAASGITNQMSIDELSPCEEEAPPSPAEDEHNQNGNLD
# assay: Phosphodiesterase enzyme screening assay, PDE1B
# Format: biochemical
# experimental-context: ratio of IC50 values PDE1B / PDE9A2; value greater than 1 = greater selectivity for PDE9A2
value-type: PDE1B selectivity (versus PDE9A2)
Answers are plain numbers.

CC1CN(Cc2c(F)ccc(F)c2Cl)CC1c1nn2c(C3CCOCC3)ncc2c(=O)[nH]1 (single isomer, unassigned; (+)) :: 231
CC1CN(Cc2ccc(F)c(Cl)c2)CC1c1nn2c(C3CCOCC3)ncc2c(=O)[nH]1 (single isomer, unassigned; (+)) :: 430
CC1CN(Cc2cccc(Cl)c2Cl)CC1c1nn2c(C3CCOCC3)ncc2c(=O)[nH]1 (single isomer, unassigned; (+)) :: 199
COc1cncc(CN2CC(C)C(c3nn4c(C5CCOCC5)ncc4c(=O)[nH]3)C2)c1 (single isomer, unassigned; (+)) :: 1780
CC1CN(Cc2ccc(F)c(C#N)c2)CC1c1nn2c(C3CCOCC3)ncc2c(=O)[nH]1 (single isomer, unassigned; (+)) :: 58

Parameters: items (list). Returns: PDE1B selectivity (versus PDE9A2) for each item.
1. CC1CN(Cc2cc(Cl)ccc2F)CC1c1nn2c(C3CCOCC3)ncc2c(=O)[nH]1 (single isomer, unassigned; (+))
2. CC1CN(Cc2cc(F)ccc2Cl)CC1c1nn2c(C3CCOCC3)ncc2c(=O)[nH]1 (single isomer, unassigned; (+))

16
73

Parameters: items (list). Returns: PDE1B selectivity (versus PDE9A2) for each item.
1. Cc1cccc(CN2CC(C)C(c3nn4c(C5CCOCC5)ncc4c(=O)[nH]3)C2)n1 (single isomer, unassigned; (+))
2. CC1CN(Cc2ccc(Cl)cn2)CC1c1nn2c(C3CCOCC3)ncc2c(=O)[nH]1 (single isomer, unassigned; (+))
3. CC1CN(Cc2cc(Cl)cc(C(F)(F)F)c2)CC1c1nn2c(C3CCOCC3)ncc2c(=O)[nH]1 (single isomer, unassigned; (+))

1: 1005; 2: 184; 3: 105

Parameters: items (list). Returns: PDE1B selectivity (versus PDE9A2) for each item.
1. Cc1cc(CN2CC(C)C(c3nn4c(C5CCOCC5)ncc4c(=O)[nH]3)C2)ccc1Cl (single isomer, unassigned; (+))
2. Cc1ncccc1CN1CC(C)C(c2nn3c(C4CCOCC4)ncc3c(=O)[nH]2)C1 (single isomer, unassigned; (+))
3. Cc1ccnc(CN2CC(C)C(c3nn4c(C5CCOCC5)ncc4c(=O)[nH]3)C2)c1 (single isomer, unassigned; (+))
4. CC1CN(Cc2ccccc2OC(F)(F)F)CC1c1nn2c(C3CCOCC3)ncc2c(=O)[nH]1 (single isomer, unassigned; (+))

1. 818
2. 201
3. 116
4. 24
